All figures here come from ChEMBL document CHEMBL1201862.

System: OVCAR-3
Test: NCI tumour cell line growth inhibition, 48 h
Activity calls are given as the source filed them. Cut-off read from the data, not from the text of the source: active = GI50 up to about 1.1 µM and inactive = higher.
Could you please pick one outcome from this set? active, inactive

# COMPOUND, GROUP
data = [
    ("CC(=O)O[C@H]1C(=O)[C@@]2(C)[C@H]([C@H](OC(=O)c3ccccc3)[C@]3(O)C[C@H](OC(=O)[C@H](O)[C@@H](NC(=O)c4ccccc4)c4cccc(N(C)C)c4)C(C)=C1C3(C)C)[C@]1(OC(C)=O)CO[C@@H]1C[C@@H]2O", "active"),
    ("Nc1ccccc1OCCCOc1ccccc1N", "inactive"),
    ("COc1c2c(cc3nc4ccccc4nc13)CCC(C(C)(C)O)C2 (centres undefined)", "inactive"),
]

stdin: For `CC(C)(CCc1nc2ccccc2[nH]1)C(=O)O` , which call appears in the assay record?
stdout: inactive

stdin: Hello, I am checking results. What call was entered for CC1(C)N=C2C(=O)c3c([nH]c4ccccc34)[C@]3(C)CCC1CC23 (some centres undefined) ?
stdout: inactive

stdin: # outcome recorded in this test, key = `O=C(NCCc1ccccc1)c1cc(/C=C/c2cc(O)ccc2O)ccc1O`
stdout: inactive

stdin: Kindly provide the recorded test outcome for the following compound: CC(=O)C1C(=O)C(=O)N(c2ccccc2N2C(=O)C(=O)C(C(C)=O)C2=O)C1=O (centres undefined)
stdout: inactive

stdin: For CC(Oc1ccc(Cl)cc1Cl)C(=O)NN1C(=O)CC(=O)NC1=S (centres undefined) , what call appears in the results of this test?
stdout: inactive
